Target: [MCL-1]-[compound of formula (I)]-[CRBN/DDB1] complex (Homo sapiens, UniProt Q07820+Q96SW2)
Sequence (Q07820 whole entry): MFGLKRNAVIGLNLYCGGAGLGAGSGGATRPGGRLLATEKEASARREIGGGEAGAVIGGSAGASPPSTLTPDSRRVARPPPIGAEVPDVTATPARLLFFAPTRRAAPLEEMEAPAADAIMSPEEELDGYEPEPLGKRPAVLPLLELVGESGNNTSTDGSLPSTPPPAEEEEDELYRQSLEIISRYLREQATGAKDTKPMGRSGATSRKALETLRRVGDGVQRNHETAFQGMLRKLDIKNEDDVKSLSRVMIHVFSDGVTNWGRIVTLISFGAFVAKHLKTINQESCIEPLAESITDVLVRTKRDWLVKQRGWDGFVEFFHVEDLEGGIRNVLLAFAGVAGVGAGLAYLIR
Sequence (Q96SW2 whole entry): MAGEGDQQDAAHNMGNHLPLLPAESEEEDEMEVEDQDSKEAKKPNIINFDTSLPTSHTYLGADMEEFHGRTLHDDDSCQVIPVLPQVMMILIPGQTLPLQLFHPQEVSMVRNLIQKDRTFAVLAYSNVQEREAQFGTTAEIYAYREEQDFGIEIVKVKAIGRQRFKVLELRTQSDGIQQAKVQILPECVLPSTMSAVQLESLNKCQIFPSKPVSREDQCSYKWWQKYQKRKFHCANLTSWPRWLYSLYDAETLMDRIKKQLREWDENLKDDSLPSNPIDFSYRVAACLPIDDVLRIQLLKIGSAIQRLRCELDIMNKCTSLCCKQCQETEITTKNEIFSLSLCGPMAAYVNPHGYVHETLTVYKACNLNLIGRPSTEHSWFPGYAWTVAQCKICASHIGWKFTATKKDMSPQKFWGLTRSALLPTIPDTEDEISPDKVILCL
Sequence (Q16531 whole entry partner): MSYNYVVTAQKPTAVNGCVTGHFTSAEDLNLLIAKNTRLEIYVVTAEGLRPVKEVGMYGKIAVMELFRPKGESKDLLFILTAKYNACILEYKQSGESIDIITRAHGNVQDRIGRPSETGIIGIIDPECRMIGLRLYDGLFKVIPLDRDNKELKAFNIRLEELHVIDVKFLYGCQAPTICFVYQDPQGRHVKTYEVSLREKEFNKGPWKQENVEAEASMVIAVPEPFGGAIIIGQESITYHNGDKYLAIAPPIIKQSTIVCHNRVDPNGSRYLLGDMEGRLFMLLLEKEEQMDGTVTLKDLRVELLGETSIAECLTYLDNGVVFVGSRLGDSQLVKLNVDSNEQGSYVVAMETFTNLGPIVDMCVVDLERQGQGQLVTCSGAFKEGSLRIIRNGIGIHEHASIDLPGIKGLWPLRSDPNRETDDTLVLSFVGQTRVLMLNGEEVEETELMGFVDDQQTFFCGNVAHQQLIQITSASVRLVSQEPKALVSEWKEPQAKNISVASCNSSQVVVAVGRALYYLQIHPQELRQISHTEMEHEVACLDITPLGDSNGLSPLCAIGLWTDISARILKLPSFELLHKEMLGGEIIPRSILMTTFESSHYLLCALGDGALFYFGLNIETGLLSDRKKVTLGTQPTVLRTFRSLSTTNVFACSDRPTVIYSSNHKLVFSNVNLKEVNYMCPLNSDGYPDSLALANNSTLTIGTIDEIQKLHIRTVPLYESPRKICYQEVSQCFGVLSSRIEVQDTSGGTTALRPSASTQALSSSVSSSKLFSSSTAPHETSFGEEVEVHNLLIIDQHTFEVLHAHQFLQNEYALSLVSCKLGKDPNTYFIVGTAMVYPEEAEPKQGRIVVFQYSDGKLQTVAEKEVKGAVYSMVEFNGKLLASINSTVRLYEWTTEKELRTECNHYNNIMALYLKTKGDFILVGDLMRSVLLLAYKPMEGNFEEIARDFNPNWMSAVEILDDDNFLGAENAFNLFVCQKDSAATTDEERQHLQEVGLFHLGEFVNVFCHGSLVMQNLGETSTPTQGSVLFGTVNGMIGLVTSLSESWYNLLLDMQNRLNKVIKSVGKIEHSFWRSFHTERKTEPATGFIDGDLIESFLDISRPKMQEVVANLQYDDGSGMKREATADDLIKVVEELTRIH
Assay: AlphaLISA dose response ternary complex formation assay
Assay type: binding
Details: read-out: AlphaLISA dose response Average pEC50 by molecule (converted)
Form field: EC50 (one value per entry).

Answered examples (4):
Cc1nn(C)c(C)c1-c1c(Cl)ccc2c(CCCOc3cccc4cc(F)ccc34)c(C(=O)O)n(CCCOCCn3c(C)nc4c(C(=O)NC5CCC(=O)NC5=O)cccc43)c12 (centres unmarked) [Compound 280]	< 10 nM
Cc1nn(C)c(C)c1-c1c(Cl)ccc2c(CCCOc3cccc4cc(F)ccc34)c(C(=O)O)n(CCN3CCN(C(=O)[C@@H](C)Oc4cccc5c4C(=O)N([C@@H]4CCC(=O)NC4=O)C5=O)CC3)c12 (single isomer, unassigned) [Compound 316]	< 1000 nM
Cc1nn(C)c(C)c1-c1c(Cl)ccc2c(CCCOc3cccc4cc(F)ccc34)c(C(=O)O)n(CCN3CCN(C(=O)Cn4c(C)nc5c(C(=O)NC6CCC(=O)NC6=O)cc(Br)cc54)CC3)c12 (centres unmarked) [Compound 273]	< 10 nM
Cc1nn(C)c(C)c1-c1c(Cl)ccc2c(CCCOc3cccc4c3CCCC4)c(C(=O)O)n(CCN3CCN(C(=O)COc4cccc5c4C(=O)N(C4CCC(=O)NC4=O)C5=O)CC3)c12 (centres unmarked) [Compound 216]	< 10 nM

For this compound ( Cc1nn(C)c(C)c1-c1c(Cl)ccc2c(CCCOc3cccc4cc(F)ccc34)c(C(=O)O)n(CCN3CCN(C(=O)Cn4c(C)nc5c(C(=O)NC6CCC(=O)NC6=O)ccc(Cl)c54)CC3)c12 (centres unmarked) [Compound 271] ), measured EC50 is < 100 nM

###

Form field: EC50 (one value per entry).
Molecular target: [MCL-1]-[compound of formula (I)]-[CRBN/DDB1] complex (Homo sapiens, UniProt Q07820+Q96SW2)
Assay: AlphaLISA dose response ternary complex formation assay
Type: binding
Conditions: read-out: AlphaLISA dose response Average pEC50 by molecule (converted)

Cc1nn(C)c(C)c1-c1c(F)ccc2c(CCCOc3cccc4cc(F)ccc34)c(C(=O)O)n(CCN3CCN(C(=O)COc4cccc5c4C(=O)N(C4CCC(=O)NC4=O)C5=O)CC3)c12 (stereo not shown)	< 0.1 µM
Cc1nn(C)c(C)c1-c1c(Cl)ccc2c(CCCOc3cccc4cc(F)ccc34)c(C(=O)O)n(CCN3CCN(C(=O)COc4cccc5c4CN(C4CCC(=O)NC4=O)C5=O)CC3)c12 (stereo not shown)	< 0.1 µM
Cc1nc2c(C(=O)NC3CCC(=O)NC3=O)cc(OCC(=O)N3CCN(CCn4c(C(=O)O)c(CCCOc5cccc6ccccc56)c5ccc(Cl)c(-c6c(C)nn(C)c6C)c54)CC3)cc2[nH]1 (stereo not shown)	< 0.1 µM

For this molecule ( Cc1nn(C)c(C)c1-c1c(Cl)ccc2c(CCCOc3cccc4ccccc34)c(C(=O)O)n(CC[N+]3([O-])CCN(C(=O)COc4cccc5c4CN(C4CCC(=O)NC4=O)C5=O)CC3)c12 (stereo not shown) ), measured EC50 is < 0.1 µM

For this molecule ( Cc1nn(C)c(C)c1-c1c(Cl)ccc2c(CCCOc3cccc4cc(F)ccc34)c(C(=O)O)n(CCN3CCC(CN4CCN(c5cccc6c5C(=O)N(C5CCC(=O)NC5=O)C6=O)CC4)CC3)c12 (stereo not shown) ), measured EC50 is < 0.1 µM

For this molecule ( Cc1nn(C)c(C)c1-c1c(Cl)ccc2c(CCCOc3cccc4cc(F)ccc34)c(C(=O)O)n(CC[N+]3([O-])CCN(C(=O)COc4cccc5c4CN(C4CCC(=O)NC4=O)C5=O)CC3)c12 (stereo not shown) ), measured EC50 is < 0.01 µM

For this molecule ( COc1cc(OCCCc2c(C(=O)O)n(CCN3CCN(C(=O)COc4cccc5c4C(=O)N(C4CCC(=O)NC4=O)C5=O)CC3)c3c(-c4c(C)nn(C)c4C)c(Cl)ccc23)c2ccccc2c1 (stereo not shown) ), measured EC50 is < 0.1 µM

For this molecule ( Cc1nn(C)c(C)c1-c1c(Cl)ccc2c(CCCOc3cccc4cc(F)ccc34)c(C(=O)O)n(CCN3CCN(C(=O)Cn4c(C)nc5c(C(=O)NC6CCC(=O)NC6=O)ccc(Br)c54)CC3)c12 (stereo not shown) ), measured EC50 is < 0.1 µM

###

Form field: EC50 (one value per entry).
Molecular target: [MCL-1]-[compound of formula (I)]-[CRBN/DDB1] complex (Homo sapiens, UniProt Q07820+Q96SW2)
Test: HTRF ternary complex assay
Type: binding
Conditions: ternary complex formation; read-out: HTRF ternary complex Average pEC50 by molecule (converted)

Answered examples (3):
Cc1nn(C)c(C)c1-c1c(Cl)ccc2c(CCCOc3cccc4cc(F)ccc34)c(C(=O)O)n(CCCOCCn3c(C)nc4c(C(=O)NC5CCC(=O)NC5=O)cccc43)c12 (centres unmarked)	< 0.01 µM
Cc1nn(C)c(C)c1-c1c(Cl)ccc2c(CCCOc3cccc4cc(F)ccc34)c(C(=O)O)n(CCOCCCn3c(C)nc4c(C(=O)NC5CCC(=O)NC5=O)cccc43)c12 (centres unmarked)	< 0.1 µM
Cc1nn(C)c(C)c1-c1c(Cl)ccc2c(CCCOc3cccc4cc(F)ccc34)c(C(=O)O)n(CCN3CCN(C(=O)Cn4c(C)nc5c(C(=O)NC6CCC(=O)NC6=O)ccc(Br)c54)CC3)c12 (centres unmarked)	< 0.01 µM

For this compound ( Cc1nn(C)c(C)c1-c1c(Cl)ccc2c(CCCOc3cccc4c3CCCC4)c(C(=O)O)n(CCN3CCN(C(=O)COc4cccc5c4C(=O)N(C4CCC(=O)NC4=O)C5=O)CC3)c12 (centres unmarked) ), measured EC50 is < 0.01 µM

For this compound ( Cc1nn(C)c(C)c1-c1c(Cl)ccc2c(CCCOc3cccc4cc(F)ccc34)c(C(=O)O)n(CCN3CCN(CC4CN(c5cc6c(cc5F)C(=O)N(C5CCC(=O)NC5=O)C6=O)C4)CC3)c12 (centres unmarked) ), measured EC50 is < 0.01 µM

For this compound ( Cc1nn(C)c(C)c1-c1c(Cl)ccc2c(CCCOc3cccc4cc(F)ccc34)c(C(=O)O)n(CCN3CC4(CCN(C(=O)COc5cccc6c5CN(C5CCC(=O)NC5=O)C6=O)CC4)C3)c12 (centres unmarked) ), measured EC50 is < 0.01 µM

For this compound ( Cc1nn(C)c(C)c1-c1c(Cl)ccc2c(CCCOc3cccc4cc(F)ccc34)c(C(=O)O)n(CCN3CCN(C(=O)C(C)(C)Oc4cccc5c4CN(C4CCC(=O)NC4=O)C5=O)CC3)c12 (centres unmarked) ), measured EC50 is < 0.1 µM

For this compound ( Cc1nn(C)c(C)c1-c1c(Cl)ccc2c(CCCOc3cccc4cc(F)ccc34)c(C(=O)O)n(CCN3CCN(C(=O)Cn4c(C)nc5c(C(=O)NC6CCC(=O)NC6=O)ccc(C)c54)CC3)c12 (centres unmarked) ), measured EC50 is < 0.01 µM

For this compound ( Cc1nn(C)c(C)c1-c1c(Cl)ccc2c(CCCOc3cccc4cc(F)ccc34)c(C(=O)O)n(CCC3CCC(NC(=O)COc4cccc5c4CN(C4CCC(=O)NC4=O)C5=O)CN3C)c12 (centres unmarked) ), measured EC50 is < 0.01 µM

For this compound ( Cc1nc2ccc(C(=O)N3CCN(CCn4c(C(=O)O)c(CCCOc5cccc6cc(F)ccc56)c5ccc(Cl)c(-c6c(C)nn(C)c6C)c54)CC3)cc2cc1C1CCC(=O)NC1=O (centres unmarked) ), measured EC50 is < 0.01 µM

For this compound ( Cc1nn(C)c(C)c1-c1c(Cl)ccc2c(CCCOc3cccc4cc(F)ccc34)c(C(=O)O)n(CCN3CCC(Nc4cccc5c4C(=O)N(C4CCC(=O)NC4=O)C5=O)CC3)c12 (centres unmarked) ), measured EC50 is < 0.1 µM

###

Target: MCL-1 protein (Homo sapiens)
Sequence (Q07820 whole entry): as the sequence (Q07820 whole entry) above
Experiment: OPM-2 cells: MCL-1 protein degradation, Simple Western
Format: cell-based
Parameters: endogenous in cells; host or cells: OPM-2
Settings: OPM-2 cell line, 6 h treatment, 100 nM compound, vs DMSO
Form field: Simple Western, % of protein reduction (one value per entry).

Answered examples (2):
Cc1nn(C)c(C)c1-c1c(F)ccc2c(CCCOc3cccc4cc(F)ccc34)c(C(=O)O)n(CCN3CCN(C(=O)COc4cccc5c4C(=O)N(C4CCC(=O)NC4=O)C5=O)CC3)c12 (stereo not drawn)	≥20%
Cc1nc2c(C(=O)NC3CCC(=O)NC3=O)cc(OCC(=O)N3CCN(CCn4c(C(=O)O)c(CCCOc5cccc6ccccc56)c5ccc(Cl)c(-c6c(C)nn(C)c6C)c54)CC3)cc2[nH]1 (stereo not drawn)	≥40%

For this compound ( Cc1nn(C)c(C)c1-c1c(Cl)ccc2c(CCCOc3cccc4ccccc34)c(C(=O)O)n(CCN3CCN(C(=O)Cn4c(C)nc5c(C(=O)NC6CCC(=O)NC6=O)cccc54)CC3)c12 (stereo not drawn) ), measured Simple Western, % of protein reduction is ≥40%

For this compound ( Cc1nn(C)c(C)c1-c1c(F)ccc2c(CCCOc3cccc4ccccc34)c(C(=O)O)n(CCN3CCN(C(=O)COc4cccc5c4C(=O)N(C4CCC(=O)NC4=O)C5=O)CC3)c12 (stereo not drawn) ), measured Simple Western, % of protein reduction is ≥40%

For this compound ( Cc1nc2c(C(=O)NC3CCC(=O)NC3=O)c(OCC(=O)N3CCN(CCn4c(C(=O)O)c(CCCOc5cccc6ccccc56)c5ccc(Cl)c(-c6c(C)nn(C)c6C)c54)CC3)ccc2[nH]1 (stereo not drawn) ), measured Simple Western, % of protein reduction is ≥20%

For this compound ( Cc1nn(C)c(COc2ccc(N3CCN(S(=O)(=O)N(C)C)CC3)cc2)c1-c1cccc2c(CCCOc3cccc4ccccc34)c(C(=O)O)n(CCN3CCN(C(=O)CNc4cccc5c4C(=O)N(C4CCC(=O)NC4=O)C5=O)CC3)c12 (stereo not drawn) ), measured Simple Western, % of protein reduction is ≥20%
